Tested on: MCF10A
RUN_DESCRIPTION: 5+ nucleoli phenotype percent effect (relative to siNT 0% and siKIF11 100%); higher = more cells with five or more nucleoli
APPLIED_CONDITIONS: 20 nM; 72 h
Outcome: MET for 5+ nucleoli phenotype percent effect of at least 10%; NOT MET for anything lower.

SEQ_TEXT: GACACUAGGCAUGUGAGUGAUU [hsa-miR-4704-5p]
TARGET_ENTITY: MCF10A
ANSWER_LABEL: NOT MET
--
SEQ_TEXT: AAAGUGCUUCCUUUUAGAGGGU [hsa-miR-520c-3p]
TARGET_ENTITY: MCF10A
ANSWER_LABEL: MET
--
SEQ_TEXT: CUCACUGAUCAAUGAAUGCA [hsa-miR-181b-2-3p]
TARGET_ENTITY: MCF10A
ANSWER_LABEL: NOT MET
--
SEQ_TEXT: AUUGGGGACAUUUUGCAUUCAU [hsa-miR-450a-3p]
TARGET_ENTITY: MCF10A
ANSWER_LABEL: NOT MET
--
SEQ_TEXT: UGUAGGCAUGAGGCAGGGCCCAGG [hsa-miR-6806-5p]
TARGET_ENTITY: MCF10A
ANSWER_LABEL: MET
--
SEQ_TEXT: CUGCCCUAGUCUAGCUGAAGCU [hsa-miR-3157-3p]
TARGET_ENTITY: MCF10A
ANSWER_LABEL: MET
